# assayTarget: MLC kinase (myosin light-chain kinase) (Gallus gallus)
# Construct: MLC kinase was purified from chicken stomach; from tissue; host or cells: chicken stomach (gizzard smooth muscle)
# experiment: inhibition of MLC kinase, in vitro enzyme test (32P phosphate incorporation)
# Type: biochemical, chicken (stomach)
# measurementSetup: 1 nM MLC kinase, 250 μM ATP, pH 7.2, 20 minutes at 30° C.; read-out: inhibition of the protein kinases, MLC-kinase IC50
I'd be grateful if you could share measured IC50 for these entries.
Answers are plain numbers, in nM.

Here's what some known entries look like.
COc1ccc2c(c1)c1c3c(c4c5ccccc5n(C)c4c1n2CCCN)C(=O)NC3=O [Example 4a] :: 4.9
Cn1c2ccccc2c2c3c(c4c5ccccc5n(CCCC#N)c4c21)C(=O)NC3=O [Example 1g] :: 22
Cn1c2ccccc2c2c3c(c4c5ccccc5[nH]c4c21)C(=O)NC3=O [Example 7c] :: 23

Okay, now this compound:
Form: compound = COc1ccc2c3c4c(c5c6ccccc6n(C)c5c3n(CCC#N)c2c1)C(=O)NC4=O [Example 1u] ; IC50 = 540

---

# assayTarget: MLC kinase (myosin light-chain kinase) (Gallus gallus)
# Construct: MLC kinase was purified from chicken stomach; from tissue; host or cells: chicken stomach (gizzard smooth muscle)
# experiment: inhibition of MLC kinase, in vitro enzyme test (32P phosphate incorporation)
# Type: biochemical, chicken (stomach)
# measurementSetup: selectivity factor calculated from the IC50 values
experimentalReadout: ratio of IC50 C-kinase/IC50 MLC-kinase
Numbers only.

Example results:
CN(C)CC(O)Cn1c2ccccc2c2c3c(c4c5ccccc5n(C)c4c21)C(=O)NC3=O (racemic) :: 0.2
CCN(CC)CC(O)Cn1c2ccccc2c2c3c(c4c5ccccc5[nH]c4c21)C(=O)NC3=O (racemic) :: 2.9
COc1ccc2c(c1)c1c3c(c4c5ccccc5n(CCCN(C)C)c4c1n2C)C(=O)NC3=O :: 4.1

Switching to the query record.
Query COc1ccc2[nH]c3c4[nH]c5ccccc5c4c4c(c3c2c1)C(=O)NC4=O [Example 11b] yields ratio of IC50 C-kinase/IC50 MLC-kinase of 4.7

---

# assayTarget: MLC kinase (myosin light-chain kinase) (Gallus gallus, UniProt P11799)
# Construct: MLC kinase was purified from chicken stomach; from tissue; host or cells: chicken stomach (gizzard smooth muscle)
# Sequence (P11799 935-1906): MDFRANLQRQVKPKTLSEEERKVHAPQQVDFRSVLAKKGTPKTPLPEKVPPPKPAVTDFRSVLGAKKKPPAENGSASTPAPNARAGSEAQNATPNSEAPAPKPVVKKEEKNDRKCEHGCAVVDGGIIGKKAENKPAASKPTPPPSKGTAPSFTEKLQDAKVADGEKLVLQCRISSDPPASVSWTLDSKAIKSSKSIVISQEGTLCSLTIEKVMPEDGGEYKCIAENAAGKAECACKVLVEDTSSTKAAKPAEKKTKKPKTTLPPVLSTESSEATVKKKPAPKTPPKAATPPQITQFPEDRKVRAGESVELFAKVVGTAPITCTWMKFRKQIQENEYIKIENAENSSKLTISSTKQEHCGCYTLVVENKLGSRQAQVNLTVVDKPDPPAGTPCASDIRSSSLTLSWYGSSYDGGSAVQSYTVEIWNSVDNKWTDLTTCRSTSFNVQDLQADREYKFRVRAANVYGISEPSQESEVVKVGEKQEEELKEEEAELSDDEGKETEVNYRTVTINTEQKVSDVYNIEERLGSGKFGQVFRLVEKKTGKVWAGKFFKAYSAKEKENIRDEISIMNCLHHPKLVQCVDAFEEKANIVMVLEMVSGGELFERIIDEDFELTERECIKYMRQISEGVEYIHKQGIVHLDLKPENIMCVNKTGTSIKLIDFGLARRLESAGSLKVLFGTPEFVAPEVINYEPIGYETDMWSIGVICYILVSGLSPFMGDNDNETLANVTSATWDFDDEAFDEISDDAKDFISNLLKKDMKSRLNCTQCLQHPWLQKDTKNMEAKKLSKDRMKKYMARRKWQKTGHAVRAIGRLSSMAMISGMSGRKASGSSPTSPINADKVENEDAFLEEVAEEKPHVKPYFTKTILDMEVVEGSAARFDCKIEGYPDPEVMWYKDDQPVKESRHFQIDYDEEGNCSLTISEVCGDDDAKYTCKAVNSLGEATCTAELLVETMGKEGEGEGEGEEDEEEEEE
# experiment: inhibition of MLC kinase, in vitro enzyme test (32P phosphate incorporation)
# Format: biochemical, chicken (stomach)
# measurementSetup: selectivity factor calculated from the IC50 values
Provide the recorded ratio of IC50 C-kinase/IC50 MLC-kinase for the entries that follow.
One number for each entry.

Record ratio of IC50 C-kinase/IC50 MLC-kinase per entry; entries follow.
1. COc1ccc2c(c1)c1c3c(c4c5ccccc5n(C)c4c1n2CCC#N)C(=O)NC3=O
2. Cn1c2ccccc2c2c3c(c4c5ccccc5n(CCCC#N)c4c21)C(=O)NC3=O
3. NC(=O)CCn1c2ccccc2c2c3c(c4c5ccccc5[nH]c4c21)C(=O)NC3=O

Ans:
[0.008, 1.6, 24]

---

Assignment: determine reported pIC50 for the given compounds.
# assayTarget: MLC kinase (myosin light-chain kinase) (Gallus gallus, UniProt P11799)
# Construct: MLC kinase was purified from chicken stomach; from tissue; host or cells: chicken stomach (gizzard smooth muscle)
# experiment: inhibition of MLC kinase, in vitro enzyme test (32P phosphate incorporation)
# Assay type: biochemical, chicken (stomach)
# measurementSetup: 1 nM MLC kinase, 250 μM ATP, pH 7.2, 20 minutes at 30° C.; read-out: inhibition of the protein kinases, MLC-kinase IC50
One number for each entry, as −log10 of the molar value.

COc1ccc2c(c1)c1c3c(c4c5ccccc5n(C)c4c1n2CCC#N)C(=O)NC3=O :: 6.70

Required: pIC50, one value per compound below.
1. COc1ccc2c(c1)c1c3c(c4c5cc(OC)c(OC)cc5n(CCC#N)c4c1n2C)C(=O)NC3=O
2. CCN(CC)CC(O)Cn1c2ccccc2c2c3c(c4c5ccccc5[nH]c4c21)C(=O)NC3=O (racemic)
3. COc1cc2c3c4c(c5c6ccccc6n(C)c5c3n(CCCN(C)C)c2cc1OC)C(=O)NC4=O
4. COc1ccc2[nH]c3c(c4c(c5c6cc(OC)ccc6n(CCCN(C)C)c35)C(=O)NC4=O)c2c1

Ans:
7.48
6.77
7.70
7.40
